tested on: Salmonella typhi; assay: Antibacterial activity against Salmonella typhi by two-fold agar dilution method; assay type: functional, Salmonella enterica subsp. enterica serovar Typhi; conditions: Salmonella enterica
Hi! Just check whether MIC is below 10 µg/mL. Below gives Fulfilled, equal or above gives Not fulfilled.

>>> classification("C/C(=N\\NC(N)=S)C1=C(O)[C@H](N)[C@@H]2Cc3c(c(O)c4c(O)c(C)ccc4c3C)C(=O)[C@]2(O)C1=O.Cl")
"Not fulfilled"
>>> classification("C/C(=N\\NC(=N)N)C1=C(O)[C@H](N)[C@@H]2Cc3c(c(O)c4c(O)c(C)ccc4c3C)C(=O)[C@]2(O)C1=O.Cl")
"Not fulfilled"
>>> classification("COc1ccc(C(=O)N/N=C(\\C)C2=C(O)[C@H](N)[C@@H]3Cc4c(c(O)c5c(O)c(C)ccc5c4C)C(=O)[C@]3(O)C2=O)cc1.Cl (stereo in doubt)")
"Not fulfilled"
>>> classification("C/C(=N\\NC(=O)c1cccnc1)C1=C(O)[C@H](N)[C@@H]2Cc3c(c(O)c4c(O)c(C)ccc4c3C)C(=O)[C@]2(O)C1=O.Cl")
"Not fulfilled"
>>> classification("C/C(=N\\NC(=O)c1ccc(N)cc1)C1=C(O)[C@H](N)[C@@H]2Cc3c(c(O)c4c(O)c(C)ccc4c3C)C(=O)[C@]2(O)C1=O.Cl (stereo in doubt)")
"Not fulfilled"
>>> classification("C/C(=N\\N(C)C)C1=C(O)[C@H](N)[C@@H]2Cc3c(c(O)c4c(O)c(C)ccc4c3C)C(=O)[C@]2(O)C1=O.Cl")
"Fulfilled"
>>> classification("CC(=O)C1=C(O)[C@H](N)[C@@H]2Cc3c(c(O)c4c(O)c(C)ccc4c3C)C(=O)[C@]2(O)C1=O.Cl [CETOCYCLINE HYDROCHLORIDE]")
"Fulfilled"
